Data provenance is patent US20150094294A1.

assay: in vitro; type: cell-based
EXPERIMENTAL_READOUT: EC50

>>> reported_result("N=C(N)NCCOc1ccccc1C(=O)Nc1ccc2c(c1)Cc1cc(NC(=O)c3ccccc3OCCNC(=N)N)ccc1-2 [Compound 172]")
"22 µg/mL"

query: What EC50 value was documented for this compound, N#Cc1cc(NC(=O)c2cc(C(=O)Nc3ccc(O[C@@H]4CCNC4)c(C#N)c3)ncn2)ccc1O[C@@H]1CCNC1 [Compound 206] ?
result: > 1000 µg/mL

query: What EC50 value was documented for this compound, N=C(N)NCCC#Cc1cncc(-c2cccc(-c3cncc(C#CCCNC(=N)N)c3)c2)c1 [Compound 137] ?
result: > 1000 µg/mL

query: What EC50 value was documented for this compound, O=C(Nc1ccc(O[C@@H]2CCNC2)nc1)c1cc(C(=O)Nc2ccc(O[C@@H]3CCNC3)nc2)ncn1 [Compound 215] ?
result: > 1000 µg/mL

###

tested on: P. falciparum 3D7 (chloroquine-sensitive); assay: Anti-malarial activity, P. falciparum 3D7 culture, 72 hour, DNA content by flow cytometry; type: cell-based; details: synchronized ring-stage parasites
Listing: IC50 of selected molecules

>>> reported_result("NCCCOc1cccc(-c2ccc(-c3cccc(OCCCN)c3)s2)c1 [Compound 241]")
"> 2000 nM"
>>> reported_result("CCn1c2ccc(C3=CCN(C(=N)N)CC3)cc2c2cc(C3=CCN(C(=N)N)CC3)ccc21 [Compound 287]")
"> 100 nM"
>>> reported_result("O=C(Nc1ccc(N2CCNCC2)cc1)c1cccc(C(=O)Nc2ccc(N3CCNCC3)cc2)n1 [Compound 211]")
"> 100 nM"

Kindly consider the entry below.
query: What IC50 value was documented for this molecule, NCCCSc1ccc(NC(=O)Nc2ccc(SCCCN)c(C(F)(F)F)c2)cc1C(F)(F)F [Compound 274] ?
result: > 2000 nM

###

Listing: pEC50 of selected compounds
test: Cytotoxicity against HepG2 cells; type: cell-based; settings: human, HepG2 cells; read-out: Cytotoxicity HepG2 EC50
Please note pEC50 is a logarithmic value: minus log10 of concentration in mol/L. Answer with that number alone.

Field: example entries. Status: answers known.
>>> reported_result("O=C(Nc1ccc(O[C@@H]2CCNC2)cc1)c1cc(C(=O)Nc2ccc(O[C@@H]3CCNC3)cc2)ncn1 [Compound 197]")
3.06
>>> reported_result("N#Cc1ccc(C(=O)Nc2cc(C(F)(F)F)cc(NC(=O)c3cc(C(=O)Nc4cc(C(F)(F)F)cc(NC(=O)c5ccc(C#N)cc5)c4SCCN)ncn3)c2SCCN)cc1 [Compound 307]")
3.05

query: What pEC50 value was documented for this compound, NCCSc1c(NC(=O)c2cccc(F)c2)cc(C(F)(F)F)cc1NC(=O)c1cc(C(=O)Nc2cc(C(F)(F)F)cc(NC(=O)c3cccc(F)c3)c2SCCN)ncn1 [Compound 305] ?
result: 3.04

query: What pEC50 value was documented for this compound, c1cc(N2CCNCC2)ccc1-c1ccc(-c2ccc(N3CCNCC3)cc2)o1 [Compound 255] ?
result: 4.35

query: What pEC50 value was documented for this compound, COc1ccc(C(=O)Nc2cc(C(F)(F)F)cc(NC(=O)c3cc(C(=O)Nc4cc(C(F)(F)F)cc(NC(=O)c5ccc(OC)cc5)c4SCCN)ncn3)c2SCCN)cc1 [Compound 310] ?
result: 3.05

query: What pEC50 value was documented for this compound, c1cc(-c2ccc(N3CCNCC3)nc2)cc(-c2cccc(-c3ccc(N4CCNCC4)nc3)c2)c1 [Compound 319] ?
result: 4.08

query: What pEC50 value was documented for this compound, N#Cc1ccc(C(=O)Nc2cc(C(F)(F)F)cc(NC(=O)c3cc(C(=O)Nc4cc(C(F)(F)F)cc(N)c4SCCN)ncn3)c2SCCN)cc1 [Compound 308] ?
result: 4.47

query: What pEC50 value was documented for this compound, N=C(N)N1CCN(c2ccc(-c3ccc(-c4ccc(N5CCN(C(=N)N)CC5)nc4)s3)cn2)CC1 [Compound 254] ?
result: 4.31

query: What pEC50 value was documented for this compound, N=C(N)NCCc1cccc(NC(=O)c2cc(C(=O)Nc3cccc(CCNC(=N)N)c3)ncn2)c1 [Compound 100] ?
result: 3.08
